Biological target: human glucagon receptor (Homo sapiens)
Construct: host or cells: human liver samples or a recombinant cell line (alternatives)
Test: Human glucagon receptor affinity ([125I]glucagon displacement, membrane preparation)
Format: binding
Conditions: R-isomer; read-out: Hu 1050 (nM) R

{"Compound": "Cc1cc(Cl)ccc1-c1ccc(NC(=O)C(Cc2ccc(C(=O)NCCS(=O)(=O)O)cc2)c2ccc(C=CC(C)(C)C)cc2)cc1 (single isomer, unassigned) [drawing 125 R]", "IC50": "14 nM"}
{"Compound": "Cc1cc(Cl)ccc1-c1ccc(NC(=O)C(Cc2ccc(C(=O)NCCS(=O)(=O)O)cc2)c2ccc(C3=CCC(C(C)(C)C)CC3)cc2)cc1 (single isomer, unassigned) [drawing 129 R]", "IC50": "7 nM"}
{"Compound": "Cc1cccc2oc(-c3ccc(NC(=O)C(Cc4ccc(C(=O)NCCS(=O)(=O)O)cc4)c4ccc(-c5ccc(C(C)(C)C)cc5)cc4)cc3)nc12 (single isomer, unassigned) [drawing 135 R]", "IC50": "10 nM"}

* * *

Quick list: pIC50 per entry.
Target: human glucagon receptor (Homo sapiens)
Construct: host or cells: human liver samples or a recombinant cell line (alternatives)
Assay: Human glucagon receptor affinity ([125I]glucagon displacement, membrane preparation)
Type: binding
Settings: human glucagon receptor binding assay; stereo column says racemic or R-isomer; read-out: Hu IC50
Procedure: Compounds provided herein are dissolved in a suitable solvent (e.g., dimethlysulfoxide) at a concentration of 10 mM and then diluted in buffer (e.g., 50 mM Hepes, pH 7.4, 5 mM MgCl2, 1 mM CaCl2, and 0.2% BSA) to concentrations ranging from 1 nM to 100 μM. […] The plate is washed once with 200 μL per well of the buffer, and the filters are dried and counted using a gamma counter.
pIC50: −log10 of the molar value.

{"Compound": "CC1(C)CC=C(c2cccc(C(Cc3ccc(C(=O)NCCS(=O)(=O)O)cc3)C(=O)Nc3ccc(-c4ccc(Cl)cc4Cl)cc3)c2)CC1 (racemic)", "pIC50": 7.82}
{"Compound": "Cc1cc(C)c(-c2ccc(NC(=O)C(Cc3ccc(C(=O)NCCS(=O)(=O)O)cc3)c3ccc(C4=CCC(C)(C)CC4)cc3)cc2)c(C)c1 (racemic)", "pIC50": 7.92}
{"Compound": "Cc1ccc(-c2cc(Cl)c(NC(=O)C(Cc3ccc(C(=O)NCCS(=O)(=O)O)cc3)c3ccc(C=CC(C)(C)C)cc3)cc2C)cc1F (racemic)", "pIC50": 7.70}

* * *

Biological target: human glucagon receptor (Homo sapiens, UniProt P47871)
Construct: host or cells: human liver samples or a recombinant cell line (alternatives)
Sequence (P47871 26-477): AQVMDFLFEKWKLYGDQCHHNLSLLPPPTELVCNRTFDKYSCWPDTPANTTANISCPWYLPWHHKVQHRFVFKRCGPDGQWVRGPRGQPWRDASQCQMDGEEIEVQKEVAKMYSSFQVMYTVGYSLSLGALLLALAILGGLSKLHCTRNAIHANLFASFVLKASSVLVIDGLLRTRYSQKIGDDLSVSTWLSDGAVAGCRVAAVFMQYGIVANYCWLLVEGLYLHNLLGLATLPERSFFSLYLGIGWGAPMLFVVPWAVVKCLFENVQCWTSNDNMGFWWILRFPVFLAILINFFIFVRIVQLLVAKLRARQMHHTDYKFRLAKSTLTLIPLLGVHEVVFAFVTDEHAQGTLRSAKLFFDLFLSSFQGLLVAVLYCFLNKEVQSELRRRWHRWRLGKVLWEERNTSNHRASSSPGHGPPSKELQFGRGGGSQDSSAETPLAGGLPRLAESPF
Test: Human glucagon receptor affinity ([125I]glucagon displacement, membrane preparation)
Format: binding
Conditions: S-isomer; read-out: Hu 1050 (nM) S

{"Molecule": "Cc1cc(Cl)ccc1-c1ccc(NC(=O)C(Cc2ccc(C(=O)NCCS(=O)(=O)O)cc2)c2ccc(C3=CCC(C(C)(C)C)CC3)cc2)cc1 (single isomer, unassigned) [drawing 127 S]", "Measurement unit": "nM", "IC50": 20}
{"Molecule": "Cc1cc(Cl)ccc1-c1ccc(NC(=O)C(Cc2ccc(C(=O)NCCS(=O)(=O)O)cc2)c2ccc(C=CC(C)(C)C)cc2)cc1 (single isomer, unassigned) [drawing 125 S]", "Measurement unit": "nM", "IC50": 61}
{"Molecule": "Cc1cccc2oc(-c3ccc(NC(=O)C(Cc4ccc(C(=O)NCCS(=O)(=O)O)cc4)c4ccc(-c5ccc(C(C)(C)C)cc5)cc4)cc3)nc12 (single isomer, unassigned) [drawing 135 S]", "Measurement unit": "nM", "IC50": 49}
{"Molecule": "Cc1cc(Cl)ccc1-c1ccc(NC(=O)C(Cc2ccc(C(=O)NCCS(=O)(=O)O)cc2)c2ccc(C3=CCC(C(C)(C)C)CC3)cc2)cc1 (single isomer, unassigned) [drawing 129 S]", "Measurement unit": "nM", "IC50": 19}

* * *

Biological target: human glucagon receptor (Homo sapiens)
Construct: host or cells: human liver samples or a recombinant cell line (alternatives)
Assay: Human glucagon receptor affinity ([125I]glucagon displacement, membrane preparation)
Assay type: binding
Settings: human glucagon receptor binding assay; stereo column says racemic or R-isomer; read-out: Hu IC50
pIC50: −log10 of the molar value.
Items are presented alongside their recorded pIC50.

{"Compound": "Cc1cc(Cl)ccc1-c1ccc(NC(=O)C(Cc2ccc(C(=O)NCCS(=O)(=O)O)cc2)c2cccc(C3=CCC(C)(C)CC3)c2)cc1 (racemic)", "pIC50": 8.05}
{"Compound": "Cc1cc(C(F)(F)F)ccc1-c1ccc(NC(=O)C(Cc2ccc(C(=O)NCCS(=O)(=O)O)cc2)c2ccc(C3=CCCCC3)cc2)cc1 (racemic)", "pIC50": 7.80}
{"Compound": "CC(C)(C)c1ccc(-c2ccc(C(Cc3ccc(C(=O)NCCS(=O)(=O)O)cc3)C(=O)Nc3ccc(C4=CCC(C(C)(C)C)CC4)cc3)cc2)cc1 (racemic)", "pIC50": 7.92}
{"Compound": "Cc1cc(Cl)ccc1-c1ccc(NC(=O)C(Cc2ccc(C(=O)NCCS(=O)(=O)O)cc2)c2ccc(C3=CCC(C)(C)CC3)cc2)cc1 (racemic)", "pIC50": 7.77}
{"Compound": "Cc1cc(NC(=O)C(Cc2ccc(C(=O)NCCS(=O)(=O)O)cc2)c2ccc(-c3ccc(C(C)(C)C)cc3)cc2)ccc1-c1nc2ccccc2o1 (racemic)", "pIC50": 8.10}
{"Compound": "Cc1ccc(-c2ccc(NC(=O)C(Cc3ccc(C(=O)NCCS(=O)(=O)O)cc3)c3ccc(-c4ccc(C(C)(C)C)cc4)cc3)cc2)cc1Cl (racemic)", "pIC50": 8.00}
{"Compound": "CC(C)(C)C1CC=C(c2ccc(C(Cc3ccc(C(=O)NCCS(=O)(=O)O)cc3)C(=O)Nc3ccc(-c4nc5ccccc5o4)cc3)cc2)CC1 (racemic)", "pIC50": 8.10}
{"Compound": "CC1(C)CC=C(c2ccc(NC(=O)[C@H](Cc3ccc(C(=O)NCCS(=O)(=O)O)cc3)c3ccc(-c4ccc(C(C)(C)C)cc4)cc3)cc2)CC1", "pIC50": 8.10}
{"Compound": "CC(C)(C)c1ccc(-c2ccc(C(Cc3ccc(C(=O)NCCS(=O)(=O)O)cc3)C(=O)Nc3ccc(-c4cccc(Cl)c4)cc3)cc2)cc1 (racemic)", "pIC50": 7.92}
{"Compound": "CC1(C)CC=C(c2ccc(C(Cc3ccc(C(=O)NCCS(=O)(=O)O)cc3)C(=O)Nc3ccc(-c4ccc(C(F)(F)F)cc4Cl)cc3)cc2)CC1 (racemic)", "pIC50": 7.82}
{"Compound": "Cc1cc(C(F)(F)F)ccc1-c1ccc(NC(=O)C(Cc2ccc(C(=O)NCCS(=O)(=O)O)cc2)c2ccc(C3=CCC(C)(C)CC3)cc2)cc1 (racemic)", "pIC50": 7.96}
{"Compound": "Cc1cc(Cl)ccc1-c1ccc(NC(=O)C(Cc2ccc(C(=O)NCCS(=O)(=O)O)cc2)c2ccc(-c3ccc(C(C)(C)C)cc3)cc2)c(Cl)c1 (racemic)", "pIC50": 7.72}

* * *

Biological target: human glucagon receptor (Homo sapiens, UniProt P47871)
Construct: host or cells: human liver samples or a recombinant cell line (alternatives)
Experiment: Human glucagon receptor affinity ([125I]glucagon displacement, membrane preparation)
Assay type: binding
Details: R-isomer; read-out: Hu 1050 (nM) R
// IC50 lookup, one value per entry

{"Compound": "Cc1cc(Cl)ccc1-c1ccc(NC(=O)C(Cc2ccc(C(=O)NCCS(=O)(=O)O)cc2)c2ccc(-c3ccc(C(C)(C)C)cc3)cc2)cc1 (stereo not drawn) [drawing 131 R]", "Measurement unit": "nM", "IC50": 11}
{"Compound": "Cc1cc(Cl)ccc1-c1ccc(NC(=O)C(Cc2ccc(C(=O)NCCS(=O)(=O)O)cc2)c2ccc(C3=CCC(C(C)(C)C)CC3)cc2)cc1 (single isomer, unassigned) [drawing 127 R]", "Measurement unit": "nM", "IC50": 6}
{"Compound": "Cc1cc(Cl)ccc1-c1ccc(NC(=O)C(Cc2ccc(C(=O)NCCS(=O)(=O)O)cc2)c2ccc(C3=CCC(C)(C)CC3)cc2)cc1 (stereo not drawn) [drawing 133 R]", "Measurement unit": "nM", "IC50": 10}

* * *

Target: human glucagon receptor (Homo sapiens, UniProt P47871)
Construct: host or cells: human liver samples or a recombinant cell line (alternatives)
Test: Human glucagon receptor affinity ([125I]glucagon displacement, membrane preparation)
Format: binding
Settings: human glucagon receptor binding assay; stereo column says racemic or R-isomer; read-out: Hu IC50
Protocol: Compounds provided herein are dissolved in a suitable solvent (e.g., dimethlysulfoxide) at a concentration of 10 mM and then diluted in buffer (e.g., 50 mM Hepes, pH 7.4, 5 mM MgCl2, 1 mM CaCl2, and 0.2% BSA) to concentrations ranging from 1 nM to 100 μM. […] The plate is washed once with 200 μL per well of the buffer, and the filters are dried and counted using a gamma counter.
Outcome measure: IC50 (nM)

{"Compound": "Cc1ccc(-c2ccc(NC(=O)C(Cc3ccc(C(=O)NCCS(=O)(=O)O)cc3)c3ccc(C4=CCC(C)(C)CC4)cc3)c(Cl)c2)cc1Cl (racemic)", "Outcome measure": "IC50", "Readout value": 16}
{"Compound": "Cc1cccc2oc(-c3ccc(NC(=O)C(Cc4ccc(C(=O)NCCS(=O)(=O)O)cc4)c4ccc(C=CC(C)(C)C)cc4)cc3)nc12 (racemic)", "Outcome measure": "IC50", "Readout value": 13}
{"Compound": "CC(C)(C)C1CCC(c2ccc(C(Cc3ccc(C(=O)NCCS(=O)(=O)O)cc3)C(=O)Nc3ccc(-c4ccc(C(F)(F)F)cc4Cl)cc3)cc2)CC1 (racemic)", "Outcome measure": "IC50", "Readout value": 12}
{"Compound": "CC(C)(C)c1ccc(-c2ccc(C(Cc3ccc(C(=O)NCCS(=O)(=O)O)cc3)C(=O)Nc3ccc(C4=CCCC4)cc3)cc2)cc1 (racemic)", "Outcome measure": "IC50", "Readout value": 17}
{"Compound": "CC(C)(C)c1ccc(-c2cccc(C(Cc3ccc(C(=O)NCCS(=O)(=O)O)cc3)C(=O)Nc3ccc(-c4ccc(Cl)cc4Cl)cc3)c2)cc1 (racemic)", "Outcome measure": "IC50", "Readout value": 15}
{"Compound": "Cc1cc(Cl)ccc1-c1ccc(NC(=O)[C@H](Cc2ccc(C(=O)NCCS(=O)(=O)O)cc2)c2ccc([C@H]3CC[C@@H](C(C)(C)C)CC3)cc2)cc1", "Outcome measure": "IC50", "Readout value": 9}
{"Compound": "Cc1ccc(Cl)cc1-c1ccc(NC(=O)C(Cc2ccc(C(=O)NCCS(=O)(=O)O)cc2)c2ccc(-c3ccc(C(C)(C)C)cc3)cc2)cc1 (racemic)", "Outcome measure": "IC50", "Readout value": 10}
{"Compound": "CC1(C)CC=C(c2ccc(C(Cc3ccc(C(=O)NCCS(=O)(=O)O)cc3)C(=O)Nc3ccc(-c4ccc(C(C)(C)C)cc4)cc3Cl)cc2)CC1 (racemic)", "Outcome measure": "IC50", "Readout value": 10}
{"Compound": "CC(C)(C)c1ccc(-c2ccc(C(Cc3ccc(C(=O)NCCS(=O)(=O)O)cc3)C(=O)Nc3ccc(-c4ccc(Cl)c(Cl)c4)cc3)cc2)cc1 (racemic)", "Outcome measure": "IC50", "Readout value": 10}
{"Compound": "Cc1cc(Cl)ccc1-c1ccc(NC(=O)C(Cc2ccc(C(=O)NCCS(=O)(=O)O)cc2)c2cccc(-c3ccc(C(C)(C)C)cc3)c2)cc1 (racemic)", "Outcome measure": "IC50", "Readout value": 15}
{"Compound": "Cc1ccc(-c2ccc(NC(=O)C(Cc3ccc(C(=O)NCCS(=O)(=O)O)cc3)c3ccc(C4=CCC(C)(C)CC4)cc3)c(Cl)c2)c(C)c1 (racemic)", "Outcome measure": "IC50", "Readout value": 14}
